- TEST TARGET: 11β-HSD1 (Homo sapiens, UniProt P28845)
- Sequence (P28845 whole entry): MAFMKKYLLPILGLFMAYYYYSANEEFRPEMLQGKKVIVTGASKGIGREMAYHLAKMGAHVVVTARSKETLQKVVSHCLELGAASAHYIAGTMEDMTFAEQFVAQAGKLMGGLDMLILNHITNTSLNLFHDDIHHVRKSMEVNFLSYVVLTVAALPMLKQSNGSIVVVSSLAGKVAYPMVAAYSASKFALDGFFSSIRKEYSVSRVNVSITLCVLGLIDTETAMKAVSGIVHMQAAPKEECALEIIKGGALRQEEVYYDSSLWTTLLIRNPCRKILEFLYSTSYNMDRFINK
- METHOD SUMMARY: biochemical
- TEST SETTINGS: read-out: Average % inhibition at 100 nM, Biological Test Example 1; 100 nM
ASSAY ENDPOINT: inhibition at 0.1 µM (%)

Example entries begin here.
CC(=O)C[C@]1(c2ccc(F)cc2)CCN([C@@H](C)c2ccc(OC(F)F)cc2)C(=O)O1 [EXAMPLE 321]	96.1
Cc1ccc([C@H](C)N2CC[C@](CCCNS(C)(=O)=O)(c3ccc(F)cc3)OC2=O)cc1 [EXAMPLE 420]	97.3

[I] CCOC(=O)NCC[C@]1(c2ccc(F)cc2)CCN([C@@H](C)c2ccc(Br)cc2)C(=O)O1 [EXAMPLE 620]
[II] C[C@@H](c1ccc(Br)cc1)N1CC[C@](CCCNS(C)(=O)=O)(c2ccccc2)OC1=O [EXAMPLE 394]
Between I and II , which one shows the smaller inhibition at 0.1 µM number? Give the chosen item's label as your response. I
(I: 68.7%, II: 99.1%)

[a] C[C@@H](c1ccc(-c2ccc(F)cc2)cc1)N1CC[C@](CCN2CC[C@H](F)C2)(c2ccc(F)cc2)OC1=O [EXAMPLE 465]
[b] C[C@@H](c1ccc(Br)cc1)N1CC[C@](CCN(C)S(C)(=O)=O)(c2ccccc2)OC1=O [EXAMPLE 529]
Just curious, which one has the larger inhibition at 0.1 µM reading, a or b ? Provide the label of your selected option as the answer. b

[1] C[C@@H](c1ccc(Br)cc1)N1CC[C@](CCN2CCCC2)(c2ccc(F)cc2)OC1=O [EXAMPLE 376]
[2] C=CC[C@]1(c2ccc(F)cc2)CCN([C@@H](C)c2cccc(C(=O)OC)c2)C(=O)O1 [EXAMPLE 362]
Between the two listed entries 1 and 2 , which has its inhibition at 0.1 µM at the higher number? Pick one and reply with its label. 2
(2: 93.4%, 1: 50.3%)

* * *

- TEST TARGET: 11β-HSD1 (Homo sapiens, UniProt P28845)
- TEST SETTINGS: read-out: IC50 Range; Biological Test Example 1; microsomes from CHO cells overexpressing human 11β-HSD1
ASSAY ENDPOINT: IC50

Given the molecule CC(O)CC[C@]1(c2ccc(F)cc2)CCN([C@@H](C)c2ccc(Cl)cc2)C(=O)O1 (single isomer, unassigned) [EXAMPLE 383 Isomer 2] , write its reported IC50. < 100 nM

* * *

- TEST TARGET: 11β-HSD1 (Homo sapiens)
- METHOD SUMMARY: biochemical
- TEST SETTINGS: read-out: Average % inhibition at 100 nM, Biological Test Example 1; 100 nM compound
ASSAY ENDPOINT: inhibition at 0.1 µM (%)

These recorded examples may help you get a feel for the data.
CC(O)C[C@@]1(c2cccs2)CCN([C@@H](C)c2ccc(-c3ccc(F)cc3)cc2)C(=O)O1 (single isomer, unassigned) [EXAMPLE 167 Isomer 1]	73.7
C[C@@H](c1ccc(F)cc1)N1CC[C@](CCCO)(c2ccc(F)cc2)OC1=O	96.2
CC[C@@H](c1ccc(Br)cc1)N1CC[C@](CCCO)(c2ccc(F)cc2)OC1=O	96.7
O=C1OC(CCO)(c2ccccc2)CCN1c1cccc(-c2c(Cl)cccc2Cl)c1 (centres unmarked)	94.7
CC[C@@H](c1ccc(Br)cc1)N1CC[C@](CC(O)CO)(c2ccc(F)cc2)OC1=O (single isomer, unassigned) [EXAMPLE 255 Isomer 1]	92.5

[A] CC[C@@H](c1ccc(Br)cc1)N1CCC(CCO)(c2ccc(F)cc2)OC1=O (single isomer, unassigned) [EXAMPLE 143 Isomer 2]
[B] C=CC[C@]1(c2ccc(F)cc2)CCN([C@@H](C)c2ccc(C(=O)N3CCCCC3)cc2)C(=O)O1
Just curious, which one has the larger inhibition at 0.1 µM reading, A or B ? Mark your selection by writing its label. A
